- Method summary: Plasma concentration in C57BL6 mouse at 10 mg/kg, po after 24 hrs
- Type: ADME, organism-based
- Set-up: dose 10 mg/kg, route oral
Reported metric: concentration at 24 h (nM)

>>> data_value("Cl.NC1C[C@H]2CC[C@@H](C1)N2C(=O)[C@H](Cc1ccc(Br)cc1)NC(=O)C1(c2ccc(OC(F)(F)F)cc2)CC1 (stereo partly specified)")
500

###

- Method summary: Clearance in CD rat at 5 mg/kg
- Type: ADME, organism-based
- Set-up: dose 5 mg/kg
- Condition details: in vivo
Reported metric: clearance (mL/min/kg)

>>> data_value("Cl.NC1C[C@H]2CC[C@@H](C1)N2C(=O)[C@H](Cc1ccc(Br)cc1)NC(=O)C1(c2ccc(OC(F)(F)F)cc2)CC1 (stereo partly specified)")
9.58

Where do the numbers come from? From ChEMBL document CHEMBL2163189.
